Reported Plant response rating, Rice values for a set of compounds
System: rice (Oryza saliva)
Test protocol: Test C flooded paddy test
Format: in vivo
Run conditions: flooded paddy test, Rate 125 g/ha; scale 0 to 100 (0 no effect, 100 complete control)

A selection of reference data follows.
Compound: CC(C)(C)c1ccn(C2SCN(c3cccc(OC(F)F)c3)C2=O)n1 (centres unmarked)
Assay target: rice (Oryza saliva)
Plant response rating, Rice: 80
//
Compound: COc1cc(N2CCC(n3ccc(C(C)(C)C)n3)C2=O)ccc1Br (centres unmarked)
Assay target: rice (Oryza saliva)
Plant response rating, Rice: 25
//
Compound: CC(C)(C)c1ccn(C2OCN(c3cccc(OC(F)F)c3)C2=O)n1 (centres unmarked)
Assay target: rice (Oryza saliva)
Plant response rating, Rice: 70
//
Compound: CC(C)(C)c1ccn(C2CCN(c3cccc(Cl)c3)C2=O)n1 (centres unmarked)
Assay target: rice (Oryza saliva)
Plant response rating, Rice: 0
//
Compound: O=C1C(n2ccc(C3CC3)n2)SCN1c1cccc(C(F)(F)F)c1 (centres unmarked)
Assay target: rice (Oryza saliva)
Plant response rating, Rice: 40
//
Compound: CCC(C)c1ccn(C2CCN(c3cccc(OC(C)C)c3)C2=O)n1 (centres unmarked)
Assay target: rice (Oryza saliva)
Plant response rating, Rice: 20

Task item: Respond only with Plant response rating, Rice recorded for CCC(CC)c1ccn(C2CCN(c3cccc(OC)c3)C2=O)n1 (centres unmarked)
Reply: 0

Task item: # return recorded Plant response rating, Rice for entry CC(C)(C)c1ccn(C2CCN(c3cccc([S+]([O-])C(F)(F)F)c3)C2=O)n1 (centres unmarked)
Reply: 80

Task item: Annotate the compound CCC(C)c1ccn(C2CCN(c3ccc(Br)c(OC)c3)C2=O)n1 (centres unmarked) with its measured Plant response rating, Rice.
Reply: 25

Task item: Determine from records and report Plant response rating, Rice for CCC(CC)c1ccn(C2SCN(c3cccc(C(F)(F)F)c3)C2=O)n1 (centres unmarked)
Reply: 20

Task item: Read off the recorded Plant response rating, Rice for CCC(CC)c1ccn(C2OCN(c3cccc(OC(F)(F)F)c3)C2=O)n1 (centres unmarked)
Reply: 30

* * *

Test system: barnyardgrass (Echinochloa crus-galli)
Test protocol: Test C flooded paddy test
Format: in vivo
Run conditions: flooded paddy test, Rate 125 g/ha; scale 0 to 100 (0 no effect, 100 complete control)
Property: Plant response rating, Barnyardgrass
Form rule: numeric answer, no unit written next to it.

Compound: CCCOc1cc(N2CCC(n3ccc(C(C)(C)C)n3)C2=O)ccc1C (stereo not drawn)
Property: Plant response rating, Barnyardgrass
Readout number: 30
//
Compound: Cc1cc(C)nc(N2CCC(n3ccc(C(C)(C)C)n3)C2=O)c1 (stereo not drawn)
Property: Plant response rating, Barnyardgrass
Readout number: 40
//
Compound: COc1cc(N2CCC(n3ccc(C(C)C)n3)C2=O)ccc1Br (stereo not drawn)
Property: Plant response rating, Barnyardgrass
Readout number: 100

Task item: Specify Plant response rating, Barnyardgrass for CCC(C)c1ccn(C2CCN(c3ccc(Cl)c(OC)c3)C2=O)n1 (stereo not drawn) and stop.
Reply: 70

Task item: Answer with reported Plant response rating, Barnyardgrass of O=C1C(n2ccc(C3CCCCC3)n2)SCN1c1cccc(C(F)(F)F)c1 (stereo not drawn)
Reply: 60

Task item: Check the records and state Plant response rating, Barnyardgrass for CCCC(C)c1ccn(C2SCN(c3cccc(C(F)(F)F)c3)C2=O)n1 (stereo not drawn)
Reply: 100

* * *

Tested on: goosegrass (Eleusine indica)
Test protocol: Test C postemergence
Assay type: in vivo
Run conditions: Rate 62 g/ha, scale 0 to 100
Source text: […]
Plant response rating, Goosegrass reference

The following molecules have reported results that may help.
Molecule: CCC(CC)c1ccn(C2CCN(c3ccc(C)c(OC)c3)C2=O)n1 (centres unmarked) [Compound 81]
Property: Plant response rating, Goosegrass
Result: 0
--
Molecule: CCC(CC)c1ccn(C2OCN(c3cccc(OC(F)(F)F)c3)C2=O)n1 (centres unmarked) [Compound 68]
Property: Plant response rating, Goosegrass
Result: 0

Task item: Quote Plant response rating, Goosegrass reported for CCC(C)c1ccn(C2CCN(c3ccc(C)c(OC)c3)C2=O)n1 (centres unmarked) [Compound 80] please.
Reply: 0

Task item: Supply recorded Plant response rating, Goosegrass for CCCC(C)c1ccn(C2CCN(c3ccc(Cl)c(OC)c3)C2=O)n1 (centres unmarked) [Compound 121] here.
Reply: 0

Task item: Answer with the recorded Plant response rating, Goosegrass for the molecule listed here: CCC(CC)c1ccn(C2CCN(c3ccc(Br)c(OC)c3)C2=O)n1 (centres unmarked) [Compound 143]
Reply: 30

* * *

Tested on: lambsquarters (Chenopodium album)
Test protocol: Test B preemergence
Assay type: in vivo
Run conditions: Preemergence, Rate 500 g/ha; scale 0 to 100, 0 no effect, 100 complete control
Description: […] At the same time, plants selected from these crop and weed species and also blackgrass (Alopecurus myosuroides), wheat (Triticum aestivum) and wild oat (Avena fatua) were treated with postemergence applications of test chemicals formulated in the same manner. […] Treated plants and controls were maintained in a greenhouse for 13 to 15 days, after which time all species were compared to controls and visually evaluated. […]
Property: Plant response rating, Lambsquarters

Task item: Send back lambsquarters (Chenopodium album) Plant response rating, Lambsquarters of Cc1ccc(N2CCC(n3ccc(C(C)(C)C)n3)C2=O)cc1I (stereo not drawn) only.
Reply: 100

Task item: Give lambsquarters (Chenopodium album) Plant response rating, Lambsquarters for the following compound: CCCC(C)c1ccn(C2SCN(c3cccc(OC(F)(F)F)c3)C2=O)n1 (stereo not drawn)
Reply: 100

* * *

System: goosegrass (Eleusine indica)
Test protocol: Test C postemergence
Assay type: in vivo
Run conditions: Rate 500 g/ha, scale 0 to 100 (0 no effect, 100 complete control)
Excerpt: […]
Cut-off 70 on Plant response rating, Goosegrass: below means met, at or above means not met.

Compound: CCC(CC)c1ccn(C2SCN(c3cccc(C(F)(F)F)c3)C2=O)n1 (stereo not shown)
Assay target: goosegrass (Eleusine indica)
Group: met

Task item: In plain terms, does CCC(CC)c1ccn(C2OCN(c3cccc(OC(F)F)c3)C2=O)n1 (stereo not shown) come in under 70 for Plant response rating, Goosegrass?
Reply: not met

Task item: Plant response rating, Goosegrass strictly < 70 for this compound? COc1cc(N2CCC(n3ccc(C(C)(C)C)n3)C2=O)ccc1Cl (stereo not shown)
Reply: not met

Task item: Quick check: Plant response rating, Goosegrass of O=C1C(n2ccc(C3CCC3)n2)SCN1c1cccc(OC(F)(F)F)c1 (stereo not shown) under 70?
Reply: met

Task item: Quick check: Plant response rating, Goosegrass of CCC(C)c1ccn(C2CCN(c3ccc(Cl)c(OC)c3)C2=O)n1 (stereo not shown) under 70?
Reply: met

* * *

Recorded Plant response rating, Surinam grass values for a group of compounds are listed next.
System: Surinam grass (Brachiaria decumbens)
Test protocol: Test C preemergence
Type: in vivo
Run conditions: preemergence, Rate 31 g/ha, scale 0 to 100
Give the value as a plain number.

Task item: Please report the measured Plant response rating, Surinam grass for CCOc1cc(N2CCC(n3ccc(C(C)(C)C)n3)C2=O)ccc1C (stereo not shown)
Reply: 30

Task item: Quickly give me recorded Plant response rating, Surinam grass for COC(=O)c1cccc(N2CCC(n3ccc(C(C)(C)C)n3)C2=O)c1 (stereo not shown)
Reply: 20

Task item: Name the recorded Plant response rating, Surinam grass of the item O=C1C(n2ccc(C3CCC3)n2)SCN1c1cccc(C(F)(F)F)c1 (stereo not shown) in your answer.
Reply: 0

Task item: Retrieve Plant response rating, Surinam grass measured for CC(C)(C)c1ccn(C2CCN(c3cccc(Cl)c3)C2=O)n1 (stereo not shown) and print it.
Reply: 0

* * *

# Plant response rating (0 to 100), Foxtail, Giant per entry
Test system: giant foxtail (Setaria faberii)
Test protocol: Test C preemergence
Assay type: in vivo
Run conditions: preemergence, Rate 250 g/ha, visual evaluation after 12 to 14 days
Write no unit; give the number alone.

Look over these answered cases.
Molecule: CC(C)(C)c1ccn(C2CCN(c3cccc(OC(F)(F)F)c3)C2=O)n1 (stereo not shown)
Readout number: 100
--
Molecule: O=C1C(n2ccc(C3CCCCC3)n2)SCN1c1cccc(OC(F)(F)F)c1 (stereo not shown)
Readout number: 20

Task item: Answer with reported Plant response rating (0 to 100), Foxtail, Giant of COc1cc(OC)cc(N2CCC(n3ccc(C(C)(C)C)n3)C2=O)c1 (stereo not shown)
Reply: 0

Task item: Input CCC(C)c1ccn(C2CCN(c3cccc(OC(C)C)c3)C2=O)n1 (stereo not shown) , output reported Plant response rating (0 to 100), Foxtail, Giant.
Reply: 60

Task item: Report Plant response rating (0 to 100), Foxtail, Giant for CC(C)Oc1cccc(N2CCC(n3ccc(C(C)(C)C)n3)C2=O)c1 (stereo not shown)
Reply: 100

Task item: Supply measured Plant response rating (0 to 100), Foxtail, Giant of CC(C)c1ccn(C2SCN(c3cccc(OC(F)F)c3)C2=O)n1 (stereo not shown) in your reply.
Reply: 100

Task item: Determine its reported Plant response rating (0 to 100), Foxtail, Giant: CCC(CC)c1ccn(C2SCN(c3cccc(C(F)(F)F)c3)C2=O)n1 (stereo not shown)
Reply: 100

All figures here come from patent US7138361B2.
